- System: Mycobacterium tuberculosis
- TEST_DESCRIPTION: Antitubercular activity against Mycobacterium tuberculosis H37Rv after 28 days by Lowenstein-Jensen method
- Format: functional
- EXPERIMENTAL_PARAMETERS: 672 h
READOUT_LABEL: MIC (mg/L)
Kindly provide the numeric value in mg/L only, without the unit symbol.

Completed entries (count: 5):
>>> measurement("CO[C@H]1/C=C/O[C@@]2(C)Oc3c(C)c(O)c4c(O)c(c(/C=N/N5CCN(C)CC5)c(O)c4c3C2=O)NC(=O)/C(C)=C\\C=C\\[C@H](C)[C@H](O)[C@@H](C)[C@@H](O)[C@@H](C)[C@H](OC(C)=O)[C@@H]1C")
40
>>> measurement("Cc1ccc2c(c1)nc1c(C#N)c(-c3cc4ccccc4nc3Oc3ccc(F)cc3)c(C#N)c(N)n12")
6.25
>>> measurement("Cc1ccc2nc(Oc3ccc(F)cc3)c(-c3c(C#N)c(N)n4c(nc5cc(C)ccc54)c3C#N)cc2c1")
12.5
>>> measurement("COc1ccc2nc(Oc3ccc(F)cc3)c(-c3c(C#N)c(N)n4c(nc5cc(C)ccc54)c3C#N)cc2c1")
12.5
>>> measurement("NNC(=O)c1ccncc1")
0.2

Q. Determine from records and report MIC for Cc1ccc2nc(Oc3ccc(F)cc3)c(-c3c(C#N)c(N)n4c(nc5ccccc54)c3C#N)cc2c1
A. 25

----------
- System: Salmonella typhi
- TEST_DESCRIPTION: Antibacterial activity against Salmonella enterica subsp. enterica serovar Typhi MTCC 98 after overnight incubation by broth microdilution method
- Assay type: functional
Below, each entry is listed with its recorded MIC99.
Value expressed in µg/mL; do not type the unit.

Below: 3 compounds and their reported MIC99.
>>> measurement("COc1ccc(Oc2nc3ccc(OC)cc3cc2-c2c(C#N)c(N)n3c(nc4cc(C)ccc43)c2C#N)cc1")
250
>>> measurement("COc1ccc(Oc2nc3ccc(OC)cc3cc2-c2c(C#N)c(N)n3c(nc4ccccc43)c2C#N)cc1")
200
>>> measurement("Cc1ccc(Oc2nc3ccc(C)cc3cc2-c2c(C#N)c(N)n3c(nc4cc(C)ccc43)c2C#N)cc1")
250

Q. Return value of MIC99 for input Cc1ccc2c(c1)nc1c(C#N)c(-c3cc4ccccc4nc3Oc3ccc(F)cc3)c(C#N)c(N)n12 , no commentary.
A. 125

Q. Query MIC99 for COc1ccc2nc(Oc3ccccc3)c(-c3c(C#N)c(N)n4c(nc5cc(C)ccc54)c3C#N)cc2c1
A. 100

Q. Look up MIC99 of CCn1cc(C(=O)O)c(=O)c2cc(F)c(N3CCNCC3)cc21 and report it.
A. 10

Q. Answer with the recorded MIC99 for the compound listed here: CC1(C)S[C@@H]2[C@H](NC(=O)[C@H](N)c3ccccc3)C(=O)N2[C@H]1C(=O)O
A. 100

Q. # return recorded MIC99 for entry COc1ccc2nc(Oc3ccc(C)cc3)c(-c3c(C#N)c(N)n4c(nc5ccccc54)c3C#N)cc2c1
A. 250

Q. Complete the entry with MIC99 for N#Cc1c(-c2cc3ccccc3nc2Oc2ccc(F)cc2)c(C#N)c2nc3ccccc3n2c1N
A. 250

----------
- Test system: Escherichia coli
- TEST_DESCRIPTION: Antibacterial activity against Escherichia coli MTCC 443 after overnight incubation by broth microdilution method
- Type: functional
READOUT_LABEL: log10 of MIC99 (log10 of the value in µg/mL)
In our notation, the value equals log10 of MIC99 in µg/mL.

Examples from the recorded data:
>>> measurement("Cc1ccc(Oc2nc3ccccc3cc2-c2c(C#N)c(N)n3c(nc4ccccc43)c2C#N)cc1")
2.00
>>> measurement("COc1ccc2nc(Oc3ccccc3)c(-c3c(C#N)c(N)n4c(nc5ccccc54)c3C#N)cc2c1")
2.40
>>> measurement("N#Cc1c(-c2cc3ccccc3nc2Oc2ccc(F)cc2)c(C#N)c2nc3ccccc3n2c1N")
2.30
>>> measurement("Cc1ccc2c(c1)nc1c(C#N)c(-c3cc4ccccc4nc3Oc3ccc(F)cc3)c(C#N)c(N)n12")
1.80
>>> measurement("Cc1ccc(Oc2nc3ccc(C)cc3cc2-c2c(C#N)c(N)n3c(nc4cc(C)ccc43)c2C#N)cc1")
2.30

Q. Give me measured log10 of MIC99, please, for this compound: CCn1cc(C(=O)O)c(=O)c2cc(F)c(N3CCNCC3)cc21
A. 1.00

Q. Identify the reported log10 of MIC99 for the following entry. COc1ccc(Oc2nc3ccc(C)cc3cc2-c2c(C#N)c(N)n3c(nc4ccccc43)c2C#N)cc1
A. 2.40

----------
- System: Salmonella typhi
- TEST_DESCRIPTION: Antibacterial activity against Salmonella enterica subsp. enterica serovar Typhi MTCC 98 after overnight incubation by broth microdilution method
- Assay type: functional
Here the recorded MIC99 is given for each entry.
Note: unit µg/mL is implicit; provide only the numeric part.

>>> measurement("N#Cc1c(-c2cc3ccccc3nc2Oc2ccccc2)c(C#N)c2nc3ccccc3n2c1N")
250
>>> measurement("Cc1ccc2nc(Oc3ccc(F)cc3)c(-c3c(C#N)c(N)n4c(nc5cc(C)ccc54)c3C#N)cc2c1")
200

Next:
Q. Given the compound COc1ccc2nc(Oc3ccc(F)cc3)c(-c3c(C#N)c(N)n4c(nc5cc(C)ccc54)c3C#N)cc2c1 , write its reported MIC99.
A. 200

----------
- Tested on: Escherichia coli
- TEST_DESCRIPTION: Antibacterial activity against Escherichia coli MTCC 443 after overnight incubation by broth microdilution method
- Format: functional
Entries annotated with measured MIC99
The figure you give is taken to be in µg/mL; do not add the unit.

Below: 2 molecules and their reported MIC99.
>>> measurement("Cc1ccc2nc(Oc3ccccc3)c(-c3c(C#N)c(N)n4c(nc5ccccc54)c3C#N)cc2c1")
62.5
>>> measurement("CC1(C)S[C@@H]2[C@H](NC(=O)[C@H](N)c3ccccc3)C(=O)N2[C@H]1C(=O)O")
100

Q. Consider the molecule COc1ccc2nc(Oc3ccc(C)cc3)c(-c3c(C#N)c(N)n4c(nc5cc(C)ccc54)c3C#N)cc2c1 . State its measured MIC99.
A. 200

Q. Please list MIC99 recorded for the molecule Cc1ccc2c(c1)nc1c(C#N)c(-c3cc4ccccc4nc3Oc3ccccc3)c(C#N)c(N)n12
A. 100

----------
- Tested on: Vibrio cholerae
- TEST_DESCRIPTION: Antibacterial activity against Vibrio cholerae MTCC 3906 after overnight incubation by broth microdilution method
- Assay type: functional
READOUT_LABEL: MIC99 (mg/L)
Answer in mg/L, number only, no unit symbol.

Sample records with MIC99:
>>> measurement("COc1ccc2nc(Oc3ccc(C)cc3)c(-c3c(C#N)c(N)n4c(nc5ccccc54)c3C#N)cc2c1")
250
>>> measurement("COc1ccc(Oc2nc3ccccc3cc2-c2c(C#N)c(N)n3c(nc4ccccc43)c2C#N)cc1")
125
>>> measurement("COc1ccc2nc(Oc3ccc(F)cc3)c(-c3c(C#N)c(N)n4c(nc5ccccc54)c3C#N)cc2c1")
200
>>> measurement("Cc1ccc(Oc2nc3ccccc3cc2-c2c(C#N)c(N)n3c(nc4cc(C)ccc43)c2C#N)cc1")
200

Q. Annotate the molecule Cc1ccc(Oc2nc3ccc(C)cc3cc2-c2c(C#N)c(N)n3c(nc4cc(C)ccc43)c2C#N)cc1 with its measured MIC99.
A. 125

Q. In one line, give reported MIC99 of the entry COc1ccc2nc(Oc3ccc(C)cc3)c(-c3c(C#N)c(N)n4c(nc5cc(C)ccc54)c3C#N)cc2c1 .
A. 125

Q. Indicate the recorded MIC99 value for this molecule: CC1(C)S[C@@H]2[C@H](NC(=O)[C@H](N)c3ccccc3)C(=O)N2[C@H]1C(=O)O [AMPICILLIN]
A. 100

Q. Look up and state reported MIC99 for COc1ccc(Oc2nc3ccccc3cc2-c2c(C#N)c(N)n3c(nc4cc(C)ccc43)c2C#N)cc1
A. 250

Q. Look up MIC99 of Cc1ccc2c(c1)nc1c(C#N)c(-c3cc4ccccc4nc3Oc3ccccc3)c(C#N)c(N)n12 and report it.
A. 500

Q. Hello, please tell me recorded MIC99 for this one: Cc1ccc2nc(Oc3ccc(F)cc3)c(-c3c(C#N)c(N)n4c(nc5cc(C)ccc54)c3C#N)cc2c1
A. 100

Q. Fill in reported MIC99 for this entry: N#Cc1c(-c2cc3ccccc3nc2Oc2ccccc2)c(C#N)c2nc3ccccc3n2c1N
A. 200

Q. // Input: Cc1ccc(Oc2nc3ccccc3cc2-c2c(C#N)c(N)n3c(nc4ccccc43)c2C#N)cc1 . Output its MIC99 only.
A. 100

Q. Hello, please tell me recorded MIC99 for this one: CCn1cc(C(=O)O)c(=O)c2cc(F)c(N3CCNCC3)cc21 [NORFLOXACIN]
A. 10

Q. Please give measured MIC99 of the following entry: Cc1ccc2nc(Oc3ccccc3)c(-c3c(C#N)c(N)n4c(nc5ccccc54)c3C#N)cc2c1
A. 200

Q. Given COc1ccc(Oc2nc3ccc(C)cc3cc2-c2c(C#N)c(N)n3c(nc4ccccc43)c2C#N)cc1 , respond with its MIC99.
A. 200

Q. Report MIC99 for COc1ccc(Oc2nc3ccc(OC)cc3cc2-c2c(C#N)c(N)n3c(nc4ccccc43)c2C#N)cc1
A. 125

Q. Provide measured MIC99 value, entry: COc1ccc2nc(Oc3ccccc3)c(-c3c(C#N)c(N)n4c(nc5cc(C)ccc54)c3C#N)cc2c1
A. 250
